biological target: human GPR119 receptor (Homo sapiens, UniProt Q8TDV5, S329A/T327A); construct: N-terminal leader […]; expressed in transfected cells; assay: cAMP assay (LANCE cAMP-384) in HEK293 cells stably expressing mutant human GPR119 receptor; format: cell-based; settings: the 27th table; read-out: EC50
Sequence (Q8TDV5 with tags, fused parts or gaps T327A/S329A): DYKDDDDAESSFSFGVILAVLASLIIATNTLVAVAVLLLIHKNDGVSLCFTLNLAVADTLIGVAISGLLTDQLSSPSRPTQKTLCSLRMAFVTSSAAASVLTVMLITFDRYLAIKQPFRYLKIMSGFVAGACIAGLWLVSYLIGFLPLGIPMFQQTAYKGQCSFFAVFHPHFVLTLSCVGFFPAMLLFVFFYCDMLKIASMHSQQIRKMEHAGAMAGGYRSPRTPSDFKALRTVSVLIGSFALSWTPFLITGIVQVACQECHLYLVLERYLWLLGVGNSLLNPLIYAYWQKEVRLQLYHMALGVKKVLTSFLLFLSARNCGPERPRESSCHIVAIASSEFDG
For each entry below, report its EC50 value.
Give your result in µM as a bare value.

State, in one line, measured EC50 of `[2H]C([2H])(O)c1cc(F)c(N2CCC(=NOC3CCN(C(=O)OC(C)C)CC3)CC2)cc1F`
0.018

State, in one line, measured EC50 of `CC(C)OC(=O)N1CCC(ON=C2CCN(c3cc(F)c(CO)cc3F)CC2)CC1`
0.009
